Sourced from the Human Domainome abundance scans (Beltran et al. 2025)

B1: Gamma-crystallin C, residues 91 to 170; numbered along this chain, P07315 (parent)
chain: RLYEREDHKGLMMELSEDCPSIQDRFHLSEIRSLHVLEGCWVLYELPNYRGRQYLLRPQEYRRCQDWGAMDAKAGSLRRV

- Variants of: B1
- ASSAY_PROCEDURE: abundance fitness (aPCA) (normalised: wild type 0, dead -1); higher = more abundant; growth selection in yeast, the domain comes from the species named
- MEASUREMENT_CONTEXT: Homo sapiens
// reported abundance fitness per item
Write the number on its own, no unit after it.

I22F -0.47
L34W -0.486
R25I -0.598

# next variant below
Query :: Consider the variant D71C and give its recorded abundance fitness.
Result :: -0.029
